- STUDY_TARGET: T1, HSP70 (human HSP70; the antigen of the binning, humanization and variant binding assays) (human, UniProt P0DMV8 1-641, limits assumed)
- T1 construct: also called hu HSP70
- T1 sequence (P0DMV8 whole entry, change not shown): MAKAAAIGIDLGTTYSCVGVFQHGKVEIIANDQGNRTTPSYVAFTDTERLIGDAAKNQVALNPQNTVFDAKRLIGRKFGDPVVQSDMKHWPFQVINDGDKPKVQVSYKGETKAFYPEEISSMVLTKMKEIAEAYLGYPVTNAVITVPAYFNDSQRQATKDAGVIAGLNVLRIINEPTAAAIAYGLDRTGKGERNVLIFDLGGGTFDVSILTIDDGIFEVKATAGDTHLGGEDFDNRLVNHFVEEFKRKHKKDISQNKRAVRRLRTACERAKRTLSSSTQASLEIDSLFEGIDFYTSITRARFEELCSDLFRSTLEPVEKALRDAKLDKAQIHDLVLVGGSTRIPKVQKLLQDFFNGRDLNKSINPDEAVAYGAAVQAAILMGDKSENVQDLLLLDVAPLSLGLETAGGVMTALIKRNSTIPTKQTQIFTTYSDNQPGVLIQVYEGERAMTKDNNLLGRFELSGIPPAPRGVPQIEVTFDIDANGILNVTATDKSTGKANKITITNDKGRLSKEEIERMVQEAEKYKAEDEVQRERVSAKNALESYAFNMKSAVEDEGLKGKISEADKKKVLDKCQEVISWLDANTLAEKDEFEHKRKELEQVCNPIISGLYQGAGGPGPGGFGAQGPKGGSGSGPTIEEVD
- EXPERIMENT_DESCRIPTION: BLI, anti-human Fc capture, steady state

BINDER	OUTPUT_UNIT	KD Steady State
h77A-1.6 (antibody, V domains shown, captured by anti-human Fc) VH: QIQLVQSGAEVKKPGASVKVSCKASGYTFTNYGMNWVRQAPGQGLEWMGWINTYTGEPTYADDFKGRFTFTTDTSTRTAYMELRSLRSDDTAVYFCARYDHAMDYWGQGTLVTVSS VL: EIVLTQSPDSLAVSLGERATINCKSSQSLLNSGTRKNYLAWYQQKAGQSPKLLIYWTSTRESGVPDRFSGSGSGTDFTLTIDSLQAEDVAVYYCKQSYTLYTFGGGTKVEIK	nM	1.8
h77A-1.8 (antibody, V domains shown, captured by anti-human Fc) VH: QIQLVQSGAEVKKPGASVKVSCKASGYTFTNYGMNWVRQAPGQGLEWMGWINTYTGEPTYADDFKGRFTFTTDTSTSTAYMELRSLRSDDTAVYFCARYDHAMDYWGQGTLVTVSS VL: EIVLTQSPDSLAVSLGERATIKCKSSQSLLNSGTRKNYLAWYQQKAGQSPKLLIYWTSTRESGVPDRFSGSGSGTDFTLTIDSLQAEDVAVYYCKQSYTLYTFGGGTKVEIK	nM	0.31
h77A-1.22 (antibody, V domains shown, captured by anti-human Fc) VH: QIQLVQSGAEVKKPGASVKVSCKASGYTFTNYGMNWVRQAPGQGLEWMGWINTYTGEPTYSDDFKGRFTFTTDTSTSTAYMELRSLRSDDTAVYFCARYDHAMDYWGQGTLVTVSS VL: EIVLTQSPDSLAVSLGERATINCKSSQSLFNSGTRKNYLAWYQQKAGQSPKLLIYWTSTRESGVPDRFSGSGSGTDFTLTIDSLQAEDVAVYYCKQSYTLYTFGGGTKVEIK	nM	0.81
h77A-1.46 (antibody, V domains shown, captured by anti-human Fc) VH: QIQLVQSGVEVKKPGASVKVSCKASGYTFTNYGMNWVRQAPGQGLEWMGWINTYTGEPTYADDFKGRFTFTTDTSTSTAYMELRSLRSDDTAVYFCARYDHAMDYWGQGTLVTVSS VL: EIVLTQSPDSLAVSLGERATIKCKSSQSLLNSGTRKNYLAWYQKKAGQSPKLLIYWTSTRESGVPDRFSGSGSGTDFTLTIDSLQAEDVAVYYCKQSYTLYTFGGGTKVEIK	nM	1.2
h77A-1.10 (antibody, V domains shown, captured by anti-human Fc) VH: QIQLVQSGDEVKKPGASVKVSCKASGYTFTNYGMNWVRQAPGQGLEWMGWINTYTGEPTYADDFKGRFTFTTDTSTSTAYMELRSLRSDDTAVYFCARYDHAMDYWGQGTLVTVSS VL: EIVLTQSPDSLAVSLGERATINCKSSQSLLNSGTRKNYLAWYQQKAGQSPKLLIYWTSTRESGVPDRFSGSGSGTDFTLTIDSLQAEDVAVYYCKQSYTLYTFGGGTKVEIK	nM	2.6
h77A-1.74 (antibody, V domains shown, captured by anti-human Fc) VH: QIQLVQSGPEVKKPGASVKVSCKASGYTFTNYGMNWVRQAPGQGLEWMGWINTYTGEPTYADDFKGRFTFTTDTSTTTGYMELRSLRSDDTAVYFCARYDHAMDYWGQGTLVTVSS VL: EIVLTQSPDSLAVSLGERATIKCKSSQSLLNSGTRKNYLAWYQQKAGQSPKLLIYWTSTRESGVPDRFSGSGSGTDFTLTIDSLQAEDVAIYYCKQSYTLYTFGGGTKVEIK	nM	1.7
h77A-1.27 (antibody, V domains shown, captured by anti-human Fc) VH: QIQLVQSGAEVKKPGASVKVSCKASGYTFTNYGMNWVRQAPGQGLEWMGWINTYTGEPTYTDDFKGRFTFTTDTSTSTAYMELRSLRSDDTAVYFCARYDHAMDYWGQGTLVTVSS VL: EIVLTQSPDSLTVSLGERATINCKSSQSLLNSGTRKNYLAWYQQKAGQSPKLLIYWTSTRESGVPDRFSGSGSGTDFTLTIDSLQAEDVAVYYCKQSYTLYTFGGGTKVEIK	nM	0.89
h77A-1.75 (antibody, V domains shown, captured by anti-human Fc) VH: QIQLVQSGVEVKKPGASVKVSCKASGYTFTNYGMNWVRQAPGQGLEWMGWINTYTGEPTYSDDFKGRFTFTTDTSTSTAYMEVRSLRSDDTAVYFCARYDHAMDYWGQGTLVTVSS VL: EIVLTQSPDSLAVSLGERATINCKSSQSLFNSGTRKNYLAWYQQKAGQSPKLLIYWTSTRESGVPDRFSGSGSGTDFTLSIDSLQAEDVAVYYCKQSYTLYTFGGGTKVEIK	nM	0.023
h77A-1.17 (antibody, V domains shown, captured by anti-human Fc) VH: QIQLVQSGAEVKKPGASVKVSCKASGYTFTKYGMNWVRQAPGQGLEWMGWINTYTGEPTYADDFKGRFTFTTDTSTSTAYMELRSLRSDDTAVYFCARYDHSMDYWGQGTLVTVSS VL: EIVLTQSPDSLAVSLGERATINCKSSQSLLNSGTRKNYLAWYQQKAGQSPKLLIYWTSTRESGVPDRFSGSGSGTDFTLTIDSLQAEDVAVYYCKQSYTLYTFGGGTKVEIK	nM	1.3
